B1: Azoarcus group I ribozyme (parent)
chain: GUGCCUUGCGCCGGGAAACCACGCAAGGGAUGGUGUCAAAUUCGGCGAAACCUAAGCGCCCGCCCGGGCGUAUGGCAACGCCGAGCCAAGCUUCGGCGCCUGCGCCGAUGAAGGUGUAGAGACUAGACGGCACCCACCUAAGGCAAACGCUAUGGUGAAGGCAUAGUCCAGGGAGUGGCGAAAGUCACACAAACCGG

- Variants of: B1
- run-description: reverse-splicing fitness (ratio to wild type); higher = more active; in vitro selection; Mg2+ level not given

- mut: "C82A A111U A120C A145C C150U U176C"
  reverse-splicing fitness: 0.0198
- mut: "C82U A111U A120U A145C C150U C169U U176C"
  reverse-splicing fitness: 0.00256
- mut: "A111U A120U A145C C150G C169A U176C"
  reverse-splicing fitness: 0.00276
- mut: "C82G A111G A120U A145C C150A C169A U176C"
  reverse-splicing fitness: 0.00213
- mut: "C82U A111G A145G C150A C169G"
  reverse-splicing fitness: 0.0093
- mut: "A120U A145U U176C"
  reverse-splicing fitness: 0.642
- mut: "A111U A120G A145U C150G C169U"
  reverse-splicing fitness: 0.0212
- mut: "C82G A111U A120G A145U C150U C169G U176C"
  reverse-splicing fitness: 0.017
- mut: "C82U A111G A120C A145G C150U U176G"
  reverse-splicing fitness: 0.00625
- mut: "A111G A120U A145U C150U C169U"
  reverse-splicing fitness: 0.0793
- mut: "C82U A111G A120U C169A U176G"
  reverse-splicing fitness: 0.00189
- mut: "C82A A120G A145C C150U C169U U176C"
  reverse-splicing fitness: 0.0106
- mut: "A111U A120U A145G C150A C169A U176A"
  reverse-splicing fitness: 0.0049
- mut: "C82A A111G A145C C150G C169G"
  reverse-splicing fitness: 0.00702
- mut: "A111U A120C A145U C169A U176C"
  reverse-splicing fitness: 0.0106
- mut: "A111C A120C C150G U176G"
  reverse-splicing fitness: 0.00388
- mut: "C82G A111C A120C A145G C150G C169G U176G"
  reverse-splicing fitness: 0.0062
- mut: "C82U A111C A145U C169A U176G"
  reverse-splicing fitness: 0.00703
- mut: "C82U A111C C150G"
  reverse-splicing fitness: 0.0163
- mut: "C82A A111C A120U A145C C150A C169A U176G"
  reverse-splicing fitness: 0.00275
- mut: "C82A A120G A145U C150G C169G U176C"
  reverse-splicing fitness: 0.00552
- mut: "C82U A111C A145G C150A C169G"
  reverse-splicing fitness: 0.00813
- mut: "C82U A111C A120G A145U C169A"
  reverse-splicing fitness: 0.00767
- mut: "A111U A145C C150A C169U U176C"
  reverse-splicing fitness: 0.0105
- mut: "A111C A145U C150A C169A U176A"
  reverse-splicing fitness: 0.0138
- mut: "C82U A111G A145G C150U"
  reverse-splicing fitness: 0.334
- mut: "C82A A120C C150A C169U U176C"
  reverse-splicing fitness: 0.0137
- mut: "A111C A120U A145U C150G C169U"
  reverse-splicing fitness: 0.00794
- mut: "A120U A145G C169G U176A"
  reverse-splicing fitness: 0.0414
- mut: "A111C A120C A145C C150U C169U U176C"
  reverse-splicing fitness: 0.0237
- mut: "C82U A111U A120G A145G C150A U176G"
  reverse-splicing fitness: 0.00603
- mut: "A111G A120C A145U U176A"
  reverse-splicing fitness: 0.482
- mut: "A111U A120C C169G U176A"
  reverse-splicing fitness: 0.0144
- mut: "C82U A111G A120U A145G C150U U176G"
  reverse-splicing fitness: 0.00327
- mut: "C82A A111G A120G A145U C169A"
  reverse-splicing fitness: 0.00824
- mut: "C82U A145G C150G C169G"
  reverse-splicing fitness: 0.00814
- mut: "C82A A111G A120C A145C C150A C169U U176A"
  reverse-splicing fitness: 0.0138
- mut: "C82U A111C A120C A145C C150A C169G"
  reverse-splicing fitness: 0.00647
- mut: "C82A A111G A120U C169A U176G"
  reverse-splicing fitness: 0.00152
- mut: "C82A A111U A120U A145G C150A C169U U176G"
  reverse-splicing fitness: 0.00326
- mut: "A111G A145G C150G"
  reverse-splicing fitness: 0.364
- mut: "C82U A120C C150U"
  reverse-splicing fitness: 0.0835
- mut: "C82A A111U A120G A145U C150A C169G"
  reverse-splicing fitness: 0.00859
- mut: "C82A A111U A120U A145C C150U C169U U176C"
  reverse-splicing fitness: 0.00282
- mut: "C82U A111U A120C C150G C169G U176A"
  reverse-splicing fitness: 0.00688
- mut: "C82U A111G A120C A145G C169G U176A"
  reverse-splicing fitness: 0.0181
- mut: "C82A A111C A120U A145G C150U C169G U176A"
  reverse-splicing fitness: 0.00597
- mut: "A111G A145C C150G C169U U176G"
  reverse-splicing fitness: 0.00527
- mut: "C82U A145C C169U U176G"
  reverse-splicing fitness: 0.00457
- mut: "C82G A111C A120U A145U C150G C169U U176C"
  reverse-splicing fitness: 0.00292
- mut: "C82G A120G A145U C169G U176C"
  reverse-splicing fitness: 0.0227
- mut: "C82U A120C A145G C150A C169A"
  reverse-splicing fitness: 0.00919
- mut: "A111C A120U C150A U176A"
  reverse-splicing fitness: 0.0268
- mut: "A111C A145G C150A C169U"
  reverse-splicing fitness: 0.0232
- mut: "A120G A145U C150U C169U"
  reverse-splicing fitness: 0.33
- mut: "C82A A111C A145G C169A U176G"
  reverse-splicing fitness: 0.0069
- mut: "C82G A111C A145U C169G U176C"
  reverse-splicing fitness: 0.0169
- mut: "A111G A120U A145U C150A U176C"
  reverse-splicing fitness: 0.0372
- mut: "C82A A120G A145U C150U C169G U176A"
  reverse-splicing fitness: 0.0114
- mut: "C82A A111G A120G C150A C169G U176C"
  reverse-splicing fitness: 0.0245
- mut: "A111U A120G A145C C150G C169G U176C"
  reverse-splicing fitness: 0.00636
- mut: "C82G A120G C150A C169G"
  reverse-splicing fitness: 0.0133
- mut: "C82A A111C A120G C169A U176G"
  reverse-splicing fitness: 0.00465
- mut: "C82G A111C A120C A145C C150G C169A"
  reverse-splicing fitness: 0.00859
- mut: "C82G A111G A120C A145U C169A U176C"
  reverse-splicing fitness: 0.0149
- mut: "C82G A111U A120C A145U C150A C169A U176C"
  reverse-splicing fitness: 0.0144
- mut: "A111C A120C C150U C169A U176A"
  reverse-splicing fitness: 0.0172
- mut: "C82U A111U A120U A145G C150A C169U U176G"
  reverse-splicing fitness: 0.00228
- mut: "A111C A120C C169U U176A"
  reverse-splicing fitness: 0.031
- mut: "C82U A111G A120G A145C U176C"
  reverse-splicing fitness: 0.00983
- mut: "C82U A111U A120C A145U C150G C169A U176C"
  reverse-splicing fitness: 0.00923
- mut: "C82A A111C A120G A145C C169A U176G"
  reverse-splicing fitness: 0.0044
- mut: "C82G A111C A120G A145C C150G C169U U176C"
  reverse-splicing fitness: 0.0124
- mut: "C82A A111G A145G C150G C169G U176A"
  reverse-splicing fitness: 0.0112
- mut: "C82U A111G A120C A145G C169A"
  reverse-splicing fitness: 0.00713
- mut: "C82U A111C A120C A145C U176G"
  reverse-splicing fitness: 0.00562
- mut: "C82A A111U A145U C150A C169A"
  reverse-splicing fitness: 0.0092
- mut: "C82A A111G A120U A145C C150G C169U"
  reverse-splicing fitness: 0.00332
- mut: "C82A A111U A120U C150G C169A U176C"
  reverse-splicing fitness: 0.00557
- mut: "C82A A120C A145U C150U C169G U176G"
  reverse-splicing fitness: 0.00507
- mut: "C82U A111G A120G A145C C169G U176G"
  reverse-splicing fitness: 0.0039
- mut: "C82U A111C A145U C150U C169U U176G"
  reverse-splicing fitness: 0.00669
- mut: "A111G A120G C150A"
  reverse-splicing fitness: 0.0324
- mut: "C82A A111U A120U A145U C150U U176G"
  reverse-splicing fitness: 0.00385
- mut: "C82G C169U U176G"
  reverse-splicing fitness: 0.00463
- mut: "A111G A120C A145U C169G"
  reverse-splicing fitness: 0.0128
- mut: "C82A A111C A120G A145U C150G C169G U176G"
  reverse-splicing fitness: 0.00527
- mut: "C82A A111G C169A U176G"
  reverse-splicing fitness: 0.00616
- mut: "C82U A111U A120C A145C C150A C169A U176C"
  reverse-splicing fitness: 0.0057
- mut: "C82U A111C C150A C169A U176A"
  reverse-splicing fitness: 0.0162
- mut: "C82A A120G A145G C150A U176C"
  reverse-splicing fitness: 0.0213
